- test-protocol: NCI Yeast Anticancer Drug Screen. Data for the bub3 strain (AID 167)
- test-settings: S. cerevisiae bub3 mutant strain, at 50.0 µM, active compounds read high
Compounds without any hit were thinned out: in the full panel of roughly 79,000, 15% have a hit.
growth inhibition class ranges: bottom end = under 80%, midrange = from 80% up to 90%, top end = 90% and over

// known answers, use as guide
CC(=O)O/C=C1\c2ccccc2CCC1c1ccc2ccccc2c1 (configuration not stated) :: bottom end
O=C(c1ccc(O)c(Br)c1)c1cc(Br)ccc1O :: top end
C=CC(=O)Nc1ccccc1CC(c1c[nH]c2ccccc12)c1c[nH]c2ccccc12 :: bottom end
O=C(Nc1nnc(-c2ccccc2)s1)c1cc(=O)c2cc(Cl)ccc2o1 :: top end

Entry `Nc1cccc2c(O)cccc12` belongs to which category?
bottom end

Entry Cc1ccc(C)c(N2C/C(=N\NC(=O)CC#N)C(c3nc4ccccc4s3)C(=O)C2=O)c1 (configuration not stated) belongs to which category?
bottom end

Entry `COc1cc(CNC(=O)CCCCCCCCCCSC#N)ccc1O` belongs to which category?
midrange

Entry COc1cccc(C2c3cc4c(cc3OC(N3CCCC3)C2C)OCO4)c1 (configuration not stated) belongs to which category?
midrange

Entry `O=S(=O)(Nc1ccc(NS(=O)(=O)c2ccccc2)c(N2N=N2)c1)c1ccccc1` belongs to which category?
bottom end

Entry `CCCSc1ncnc2nc(C)[nH]c12` belongs to which category?
bottom end

Entry O=C1C2C3C=CC(C3)C2C(=O)C2C3C=CC(C3)C12 (configuration not stated) belongs to which category?
top end

Entry `NC1CCCCC1N.O=C([O-])c1ccc(N=Nc2cccc([N+](=O)[O-])c2)cc1O.O=C([O-])c1ccc(N=Nc2cccc([N+](=O)[O-])c2)cc1O.[Pt+4]` belongs to which category?
bottom end

Entry N#CC1CCCC(Cc2ccccc2)(c2ccccc2)C1=O (configuration not stated) belongs to which category?
top end

Entry `CCOC(=O)c1[nH]c2c([N+](=O)[O-])cccc2c1[N+](=O)[O-]` belongs to which category?
top end

Entry `FC(F)(F)c1cc(NC(=S)SC2CCCCC2)ccc1Cl` belongs to which category?
midrange

Entry CC1(C)OC2C(COC(c3ccccc3)(c3ccccc3)c3ccccc3)OC(n3cnc4c(=O)[nH]cnc43)C2O1 (configuration not stated) belongs to which category?
bottom end

Entry `O=C(O)/C(=C/c1ccccc1)c1ccc2ccccc2c1Br` belongs to which category?
top end
